# Species: Rattus norvegicus
# assay_protocol: Open TG-GATES - Regimen: Single
# Format: toxicity, organism-based, Sprague-Dawley
# Set-up: regimen Single, gender Male, age 6 weeks
# measurement_context: in vivo, po, 0 mg/kg, 6 h, tissue Blood, route gavage, dose level Control
Entries and their Ht
Express it in %; write the number only.

Answered examples (5):
CN1C(=O)OC(C)(C)C1=O :: 39.6
O=C(O)c1cccnc1 :: 40.5
CCSCC[C@H](N)C(=O)O :: 40
CC(=N)S [THIOACETAMIDE] :: 39.7
CCC(C)(C)C(=O)O[C@H]1C[C@@H](C)C=C2C=C[C@H](C)[C@H](CC[C@@H]3C[C@@H](O)CC(=O)O3)[C@H]21 :: 39.5

Below: the item to evaluate.
Lookup: What measured Ht goes with CC(C)C(=O)Nc1ccc([N+](=O)[O-])c(C(F)(F)F)c1 [FLUTAMIDE] ?
Found: 39.6

Where these numbers come from: ChEMBL document CHEMBL3885861
